- Test system: biotinyl-Trp-oxazolone
- run_description: self-aminoacylation, catalytic enhancement (BWO) (fold over background); higher = more active; k-Seq, kA / k0A0; sequences stand for … in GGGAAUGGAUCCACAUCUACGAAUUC…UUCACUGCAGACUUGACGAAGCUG
This sample holds only a part of the variants without activity.
Field: self-aminoacylation. Provide a value for each of the sequences that follow.
Lab note: record just the number, no unit beside it.

If you can, please state the reported self-aminoacylation value of ACUACCCUGGUCAUCGAGGGA [Fam2.1 aminoacylation ribozyme variant] .
3.04

If you can, please state the reported self-aminoacylation value of CUAGUUCAAAGAAUCGGUCUG [Fam1A.1 aminoacylation ribozyme variant] .
1.44

If you can, please state the reported self-aminoacylation value of CUACUACAAACAAUGGGUCUG [Fam1A.1 aminoacylation ribozyme variant] .
1.69

If you can, please state the reported self-aminoacylation value of CCACACUUCAAGCAAGCGGAC [Fam1B.1 aminoacylation ribozyme variant] .
0.604

If you can, please state the reported self-aminoacylation value of CUACUUUCAACAAUCGGUCUG [Fam1A.1 aminoacylation ribozyme variant] .
10.3

If you can, please state the reported self-aminoacylation value of CUCCUUCAAACAAUCGGUCUG [Fam1A.1 aminoacylation ribozyme variant] .
32.3

If you can, please state the reported self-aminoacylation value of CUAUUUCAAACAAUCGGUCUA [Fam1A.1 aminoacylation ribozyme variant] .
1.15

If you can, please state the reported self-aminoacylation value of CUCCUUCAAAUAAUCGGUCUG [Fam1A.1 aminoacylation ribozyme variant] .
11.2
